- System: 786-0
- assay: NCI tumour cell line growth inhibition, 48 h
Activity calls are given as the source filed them. No stated cut-off is given here; in the data, active = GI50 up to about 1.1 µM and inactive = higher.
I'd appreciate it if you could supply GI50 values for the items below.

[Q] Can you look up the measured GI50 of CCN(CC)C(=O)CC12CCCCC1=Nc1ccccc12 (stereo unspecified) for me?
[A] > 100 µM (inactive)

[Q] Proceed to `CSc1ncnc2c1ncn2CCC(=O)OC(C)(C)C`
[A] > 100 µM (inactive)

[Q] Proceed to `CC(=O)N[C@@H](Cc1ccc(O)cn1)C(=O)NCc1cccc(F)c1`
[A] > 100 µM (inactive)

[Q] Proceed to CNC(=O)ON(C(C)=O)C(=O)NC [CARACEMIDE]
[A] 11 µM (inactive)

[Q] Proceed to CC(O)[C@@]1(c2ccccc2)CC2(CCN(C)CC2)O[C@H]1C (stereo partly specified)
[A] > 100 µM (inactive)

[Q] Proceed to `O=c1cc2ccccc2nn1-c1ccccc1Cl`
[A] > 100 µM (inactive)

----------
- Test system: OVCAR-3
- assay: NCI tumour cell line growth inhibition, 48 h
Active and inactive are the calls of the source. No stated cut-off is given here; in the data, active = GI50 up to about 1.1 µM and inactive = higher.
measure.name: GI50

[Q] API: value(readout=GI50, system=OVCAR-3) for record NCCOCC(N)C(=O)O (stereo not drawn)
[A] > 100 µM (inactive)

[Q] Proceed to CC1=CCC(=O)[C@]2(C)C(CC(=O)O)[C@]3(C)C4=C(C)C(c5ccoc5)C[C@@H]4O[C@@H]3[C@H](O)[C@@H]12 (stereo partly drawn)
[A] > 100 µM (inactive)

[Q] Proceed to `COC(=O)c1ccc(-c2nc(C#N)c(N)o2)cc1`
[A] > 100 µM (inactive)

[Q] Proceed to COc1cc2c(cc1O)CN1CCC23C=C[C@@H](O)CC13 (stereo partly drawn)
[A] > 100 µM (inactive)

[Q] Proceed to `C[n+]1c2ccccc2c(/C=N\NS(=O)(=O)c2ccc(O)c(C(=O)O)c2)c2ccccc21`
[A] 49.1 µM (inactive)

[Q] Proceed to `N/C(=N\c1ccc(Cl)c(Cl)c1)c1ccccc1N`
[A] 39.5 µM (inactive)

[Q] Proceed to COc1ccc(C2CC(c3cc(C)ccc3O)=NC(N)=N2)cc1 (stereo not drawn)
[A] > 100 µM (inactive)

[Q] Proceed to `COc1ccc2nc3cc([N+](=O)[O-])ccc3c(NNc3ccc(Cl)cc3)c2c1`
[A] 2.39 µM (inactive)

[Q] Proceed to CC[S+](C)c1ccc(-c2c3nc(c(-c4ccc([S+](C)CC)cc4)c4ccc([nH]4)c(-c4ccc([S+](C)CC)cc4)c4nc(c(-c5ccc([S+](C)CC)cc5)c5ccc2[nH]5)C=C4)C=C3)cc1.[O-][Cl+3]([O-])([O-])[O-].[O-][Cl+3]([O-])([O-])[O-].[O-][Cl+3]([O-])([O-])[O-].[O-][Cl+3]([O-])([O-])[O-] (stereo not drawn)
[A] 56.9 µM (inactive)

[Q] Proceed to COC(=O)C(CC(C)C)NC(=O)C(NC(=O)c1ccc(-c2ccc(Cl)cc2Cl)o1)C(C)C (stereo not drawn)
[A] 16.3 µM (inactive)

[Q] Proceed to `N=C(N)NS(=O)(=O)c1ccc(Nc2c3ccccc3nc3c(C(=O)Nc4ccc(S(N)(=O)=O)cc4)cccc23)cc1`
[A] 36.8 µM (inactive)

[Q] Proceed to `CC(C)(C)OC(=O)N1C(OP(=O)(Oc2ccccc2)Oc2ccccc2)=COc2cccnc21`
[A] 72.3 µM (inactive)

[Q] Proceed to Cn1c(CC(O)c2nc3ccccc3n2C)nc2ccccc21 (stereo not drawn)
[A] > 13.1 µM (inactive)

[Q] Proceed to `COC(=O)c1cc2c(c(C(=O)OC)c1O)C(=O)C=CC2=O`
[A] > 41.2 µM (inactive)

[Q] Proceed to `COc1cc([C@@H]2c3cc4c(cc3[C@@H](Nc3ccc(/N=C\c5ccc(C(=O)O[C@@H](C(=O)O[C@H]6C[C@@]7(O)[C@@H](OC(=O)c8ccccc8)[C@@H]8[C@]9(OC(C)=O)CO[C@@H]9C[C@H](O)[C@@]8(C)C(=O)[C@H](OC(C)=O)C(=C6C)C7(C)C)[C@@H](NC(=O)c6ccccc6)c6ccccc6)cc5)cc3)[C@H]3COC(=O)[C@H]23)OCO4)cc(OC)c1O`
[A] 15.9 µM (inactive)

[Q] Proceed to `COc1cccc(NCC(=O)Nn2c(-c3ccccc3)nc3ccccc3c2=O)c1`
[A] > 100 µM (inactive)

[Q] Proceed to O=C1CCC23CC(C=CC=C12)n1c(=O)n(-c2ccccc2)c(=O)n13 (stereo not drawn)
[A] > 100 µM (inactive)

[Q] Proceed to COC(=O)C(/C(=N/NC(=O)c1ccncc1)C(=O)Nc1ccccc1OC)c1nc2ccc(Cl)cc2nc1O (stereo not drawn)
[A] > 100 µM (inactive)
